- Assayed System: MAPK14 (human) (UniProt Q16539)
- Sequence (Q16539 whole entry, looked up): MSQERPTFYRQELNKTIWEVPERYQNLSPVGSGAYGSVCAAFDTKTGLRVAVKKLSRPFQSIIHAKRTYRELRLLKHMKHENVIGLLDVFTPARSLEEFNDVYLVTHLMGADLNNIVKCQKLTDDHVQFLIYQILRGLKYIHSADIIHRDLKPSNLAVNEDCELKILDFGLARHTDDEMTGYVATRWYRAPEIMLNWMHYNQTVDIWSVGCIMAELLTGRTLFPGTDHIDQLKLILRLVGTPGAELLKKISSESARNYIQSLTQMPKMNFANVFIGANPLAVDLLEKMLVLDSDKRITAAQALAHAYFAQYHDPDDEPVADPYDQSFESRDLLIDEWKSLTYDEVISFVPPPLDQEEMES
- Assay Overview: Inhibition of LPS Stimulated TNF Production by U937 Cells
- Run Parameters: concentration not given here
Value Kind: inhibition (%)

As a guide, the following entries are already answered.
>>> print(df.to_string())
                           molecular_string  unit_symbol  recorded_measurement
0  C[C@@H](NC(=O)N1CCCC1)c1[nH]nc(-c2ccc(F)cc2)c1-c1ccncc1            %                    48
1  C[C@H](NS(=O)(=O)c1cccc(Cl)c1Cl)c1[nH]nc(-c2ccc(F)cc2)c1-c1ccncc1            %                    78
2  O=C(N[C@H](Cc1ccccc1)c1[nH]nc(-c2ccc(F)cc2)c1-c1ccncc1)[C@@H]1CCCN1            %                    11
3  COc1ccc(Br)cc1S(=O)(=O)N[C@@H](C)c1[nH]nc(-c2ccc(F)cc2)c1-c1ccncc1            %                    81
4  CCS(=O)(=O)N[C@@H](CCC(=O)NC)c1[nH]nc(-c2ccc(F)cc2)c1-c1ccncc1            %                    13

a: O=C(NCc1[nH]nc(-c2ccc(F)cc2)c1-c1ccncc1)C(F)(F)F
b: Cc1ccc(S(=O)(=O)N2CCC(c3[nH]nc(-c4ccc(F)cc4)c3-c3ccncc3)CC2)cc1
c: O=C(NCCCc1[nH]nc(-c2ccc(F)cc2)c1-c1ccncc1)NCCc1ccc(F)cc1
In this exercise, place the 3 compounds in ascending sequence of their recorded inhibition. List the labels in the requested order.
c, b, a

Hey, just so you know, these numbers are from the Kinase Knowledgebase extract (Sharma et al. 2016).
